- testTarget: T1, human TREM2 (human, UniProt Q9NZC2 19-174, limits assumed)
- T1 construct: also called triggering receptor expressed on myeloid cells 2
- T1 sequence: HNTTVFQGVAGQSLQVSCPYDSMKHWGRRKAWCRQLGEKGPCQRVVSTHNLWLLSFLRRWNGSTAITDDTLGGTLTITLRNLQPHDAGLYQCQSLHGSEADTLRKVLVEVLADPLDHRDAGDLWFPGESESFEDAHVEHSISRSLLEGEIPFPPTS
- assayName: 2nd screen 2 nM
As shown below, each of these binders has a reported Binding Signal (fold over 6E7 Parental antibody) value.
Answer with a number only, understood to be in fold.

Q: What value of Binding Signal (fold over 6E7 Parental antibody) has been recorded for this entry: V53 (antibody, V domains shown) VH: EVQLVQSGAEVKKPGESLKISCKGSGYSFTSYWIAWVRQMPGKGLEWMGIIYPGDSDTRYSPHFQGQVTISADKSISTAYLQWSSLKASDTAMYFCARQRTFYYDSSDYFDYWGQGTLVTVSS VL: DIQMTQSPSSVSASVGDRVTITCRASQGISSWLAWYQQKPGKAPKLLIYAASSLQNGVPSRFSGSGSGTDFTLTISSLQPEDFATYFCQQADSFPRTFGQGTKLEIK
A: 0.66

Q: What value of Binding Signal (fold over 6E7 Parental antibody) has been recorded for this entry: V73 (antibody, V domains shown) VH: EVQLVQSGAEVKKPGESLKISCKGSGYSFGSYWIAWVRQMPGKGLEWMGIIYPGDSDTRYSPGFQGQVTISADKSISTAYLQWSSLKASDTAMYFCARGRTFYYDSSDYFDYWGQGTLVTVSS VL: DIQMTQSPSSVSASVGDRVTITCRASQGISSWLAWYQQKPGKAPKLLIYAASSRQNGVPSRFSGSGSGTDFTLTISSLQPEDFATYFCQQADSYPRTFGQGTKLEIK
A: 4.17

Q: What value of Binding Signal (fold over 6E7 Parental antibody) has been recorded for this entry: V48 (antibody, V domains shown) VH: EVQLVQSGAEVKKPGESLKISCKGSGYSFGSYWIAWVRQMPGKGLEWMGIIYPGDSDVRYSPSFQGQVTISADKSISTAYLQWSSLKASDTAMYFCARMRTFYYDSSDYFDYWGQGTLVTVSS VL: DIQMTQSPSSVSASVGDRVTITCRASQGISSWLAWYQQKPGKAPKLLIYAASSLQTGVPSRFSGSGSGTDFTLTISSLQPEDFATYFCQQADSLPRTFGQGTKLEIK
A: 2.3

Q: What value of Binding Signal (fold over 6E7 Parental antibody) has been recorded for this entry: V1 (antibody, V domains shown) VH: EVQLVQSGAEVKKPGESLKISCKGSGYSFTSSWIAWVRQMPGKGLEWMGIIYPGDSDTRYSPSFQGQVTISADKSISTAYLQWSSLKASDTAMYFCARSRTFYYDSSDYFDYWGQGTLVTVSS VL: DIQMTQSPSSVSASVGDRVTITCRASQGISSWLAWYQQKPGKAPKLLIYAASSLTNGVPSRFSGSGSGTDFTLTISSLQPEDFATYFCQQADSYPRTFGQGTKLEIK
A: 1.29

Now consider the entry below.
Q: What value of Binding Signal (fold over 6E7 Parental antibody) has been recorded for this entry: V87 (antibody, V domains shown) VH: EVQLVQSGAEVKKPGESLKISCKGSGYSFRSYWIAWVRQMPGKGLEWMGIIYPGDSDVRYSPDFQGQVTISADKSISTAYLQWSSLKASDTAMYFCARSRTFYYDSSDYFDYWGQGTLVTVSS VL: DIQMTQSPSSVSASVGDRVTITCRASQGISSWLAWYQQKPGKAPKLLIYAASSLQWGVPSRFSGSGSGTDFTLTISSLQPEDFATYFCQQADSFPRTFGQGTKLEIK
A: 4.86

This collection of values is drawn from patent US20250282866A1.
